Consider the following compounds; for each one, report its Emax.
Molecular target: human DP receptors (Homo sapiens, UniProt Q13258)
Construct: expressed in transfected cells
Sequence (Q13258 whole entry): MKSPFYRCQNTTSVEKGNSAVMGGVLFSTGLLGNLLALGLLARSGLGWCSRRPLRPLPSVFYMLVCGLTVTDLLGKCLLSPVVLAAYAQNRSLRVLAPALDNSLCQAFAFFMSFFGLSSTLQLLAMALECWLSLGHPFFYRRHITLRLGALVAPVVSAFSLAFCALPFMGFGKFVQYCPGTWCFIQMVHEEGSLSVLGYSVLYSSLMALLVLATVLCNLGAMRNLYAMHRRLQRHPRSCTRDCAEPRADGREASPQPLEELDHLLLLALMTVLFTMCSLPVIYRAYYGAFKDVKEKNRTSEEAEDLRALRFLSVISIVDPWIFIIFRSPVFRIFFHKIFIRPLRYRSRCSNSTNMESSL
Assay: cAMP formation assay in HEK-DP cells
Format: cell-based
Conditions: HEK-DP cells, 60 min; normalized to 100 nM PGD2-stimulated cAMP as 100%
Protocol: HEK-DP cells were cultured in 6-well plates and, prior to the experiments, the medium was switched from DMEM to Opti-MEM (Thermo Fisher Scientific) containing 250 μg/ml geneticin, 200 μg/ml hygromycin B, and 100 μg/ml gentamicin for 16 h. […] Three hundred microliters of TE buffer (50 mM Tris–HCl, 4 mM EDTA [pH 7.5]) was added, and cells were scraped and transferred to microcentrifuge tubes. Samples were boiled for 8 min, placed on ice, and then centrifuged for 1 min at 16,000g. […]
Numbers only, in %.

1) CCCCC[C@H](O)/C=C/[C@H]1C(=O)C=C[C@@H]1C/C=C\CCCC(=O)O : 102

What value of Emax has been recorded for this entry: CCCCC[C@H](O)/C=C/[C@H]1C(=O)C[C@H](O)[C@@H]1C/C=C\CCCC(=O)O [PGD2, Prostaglandin D2]
100

----------
Consider the following molecules; for each one, report its Kd.
target: human DP receptors (Homo sapiens, UniProt Q13258); construct: expressed in transfected cells; assay: TCF/β-catenin-mediated luciferase reporter assay in HEK-DP cells; type: cell-based; conditions: Black/Leff operational model, partial agonists; read-out: KA (TCF transcriptional activity), apparent affinity
Answers are plain numbers, in nM.

1) CCCCCC(=O)CC[C@H]1C(=O)C[C@H](O)[C@@H]1C/C=C\CCCC(=O)O [DK-PGD2, 13,14-dihydro-15-keto PGD2] : 18.9

From here, focus on the item given below.
What value of Kd has been recorded for this entry: CCCCCC(O)CC=C1C(=O)C=CC1CC=CCCCC(=O)O (centres unmarked)
29.8

----------
Target: human DP receptors (Homo sapiens)
Construct: expressed in transfected cells
Experiment: cAMP formation assay in HEK-DP cells
Assay type: cell-based
Details: Black/Leff operational model, partial agonists; read-out: KA (cAMP formation), apparent affinity
Description: HEK-DP cells were cultured in 6-well plates and, prior to the experiments, the medium was switched from DMEM to Opti-MEM (Thermo Fisher Scientific) containing 250 μg/ml geneticin, 200 μg/ml hygromycin B, and 100 μg/ml gentamicin for 16 h. […] Three hundred microliters of TE buffer (50 mM Tris–HCl, 4 mM EDTA [pH 7.5]) was added, and cells were scraped and transferred to microcentrifuge tubes. Samples were boiled for 8 min, placed on ice, and then centrifuged for 1 min at 16,000g. […]
assayReadout: Kd (nM)
Give bare numbers, in nM.

1) CCCCCC(O)CC=C1C(=O)C=CC1CC=CCCCC(=O)O (centres unmarked) : 117

From here, focus on the item given below.
What value of Kd has been recorded for this entry: CCCCCC(=O)CC[C@H]1C(=O)C[C@H](O)[C@@H]1C/C=C\CCCC(=O)O [DK-PGD2, 13,14-dihydro-15-keto PGD2]
15

----------
biological target: human DP receptors (Homo sapiens, UniProt Q13258); experiment: competitive whole-cell [^3H]PGD2 radioligand binding assay in HEK-DP cells
Consider the following molecules; for each one, report its pIC50.
One number for each entry, as −log10 of the molar value.

Provide reported pIC50 for each item, in the same order as listed.
1. CCCCC[C@H](O)/C=C/[C@H]1C(=O)C=C[C@@H]1C/C=C\CCCC(=O)O
2. CCCCC[C@H](O)/C=C/[C@H]1C(=O)C[C@H](O)[C@@H]1C/C=C\CCCC(=O)O [PGD2, Prostaglandin D2]

1: 8.29; 2: 8.61
